Recorded values, source ChEMBL document CHEMBL4765269.

Experiment: Toxicity in rabbit red blood cells assessed as hemolysis at 3 to 22.5 ug/ml incubated for 1 hr relative to control
Type: cell-based, Oryctolagus cuniculus, Erythrocyte
Details: at 3 to 22.5 µg/mL, dose 3-22.5 µg/ml, read-out: Activity
test-readout: hemolysis at 1 h

In: Using the record for CC(C)CNc1nccc(NCc2ccc(-c3cccc(Br)c3)s2)n1 , report its hemolysis at 1 h.
Out: < 20%
